Cited source for all entries: patent US7851180B2

- Test system: homoserine O-succinyltransferase (metA)
- procedureDetails: Feed back resistance of mutant metA in the presence of 100 mM methionine
- Assay type: biochemical, Escherichia coli
- cond: w/ 100 mM Met; control without Met = 100
measuredProperty: % of specific activity retention (%)

molecule | unitSpec | measuredResult
#41: feed-back resistant metA 41 gene product, amino acid sequence SEQ. ID. NO: 22 (protein, listed as Escherichia coli) MPIRVPDELPAVNFLREENVFVMTTSRASGQEIRPLKVLILNLMPKKIETENQFLRLLSNSPLQVDIQLLRIDSRESRSTPAEHLNNFYCNFEDIQDQNFDGLIVTGAPLGLVEFNDVAYWPQIKQVLEWSKDHVTSTLIVCWAVQAALNILYGIPKQTRTEKLSGVYEHHILHPHALLTRGFDDSFLAPHSRYADFPAALIRDYTDLEILAETEEGDAYLFASKDKRIAFVTGHPEYDAQTLAQEFFRDVEAGLDPDVPYNYFPHNDPQNTPRASWRSHGNLLFTNWLNNYVYQITPYDLRHLNPTLD | % | 74
#32: feed-back resistant metA 32 gene product, amino acid sequence SEQ. ID. NO: 18 (protein, listed as Escherichia coli) MPIRVPDELPAVNFLREENVFVMTTSRASGQEIRPLKVLILNLMPKKIETENQFLRLLSNSPLQVDIQLLRIDSRESRNTPAEHLNNFYCNFEDIQDQNFDGLIVTGAPLGLVEFNDVAYWPQIKQVLEWSKDHVTSTLFVCWAVQAALNILYGIPKQTRTEKLSGVYEHHILHPHALLTRGFDDSFLAPHSRYADFPAALIRDYTDLEILAETEEGDAYLFASKDKRIAFVTGHPEYDAQTLAQEFFRDVEAGLDPDVPYNYFPHNDPQNTPRASWRSHGNLLFTNWLHYYVYQITPYDLRHMNPTLD | % | 79
#37: feed-back resistant metA 37 gene product, amino acid sequence SEQ. ID. NO: 20 (protein, listed as Escherichia coli) MPIRVPDELPAVNFLREENVFVMTTSRAPGQEIRPLKVLILNLMPKKIETENQFLRLLSNSPLQVDIQLLRIDSRESRNTPAEHLNNFYCNFEDIQDQNFDGLIVTGAPLGLVGFNDVAYWPQIKQVLEWSKDHVTSTLSVCWAVQAALNILYGIPKQTRTEKLSGVYEHHILHPHALLTRGFDDSFLAPHSRYADFPAALIRDYTDLEILAETEEGDAYLFASKDKRIAFVTGHPEYDAQTLAQEFFRDVEAGLDPDVPYNYFPHNDPQNTPRASWRSHGNLLFTNWLNYYVYQITPYDLRHMNPTLD | % | 83
#10: feed-back resistant metA 10 gene product, amino acid sequence SEQ. ID. NO: 14 (protein, listed as Escherichia coli) MPIRVPDELPAVNFLREENVFVMTTSRASGQEIRPLKVLILNLMPKKIETENQFLRLLSNSPLQVDIQLLRIDSRESRNTPAEHLNNFYCNFEDIQDQNFDGLIVTGAPLGLVEFNDVAYWPQIKQVLEWSKDHVTSTLFVCWAVQAALNILYGIPKQTRTEQLSGVYEHHILHPHALLTRGFDDSFLAPHSRYADFPAALIRDYTDLEILAETEEGDAYLLASKDKRIAFVTGHPEYDAQTLAQEFFRDVEAGLDPDVPYNYFPHNDPQNTPRASWRSHGNLLFTNWLNYYVYRITPYDLRHMNPTLD | % | 97
w.t.: wild type metA, homoserine O-succinyltransferase of E. coli (protein, UniProt P07623 2-309, looked up) Homoserine …: PIRVPDELPAVNFLREENVFVMTTSRASGQEIRPLKVLILNLMPKKIETENQFLRLLSNSPLQVDIQLLRIDSRESRNTPAEHLNNFYCNFEDIQDQNFDGLIVTGAPLGLVEFNDVAYWPQIKQVLEWSKDHVTSTLFVCWAVQAALNILYGIPKQTRTEKLSGVYEHHILHPHALLTRGFDDSFLAPHSRYADFPAALIRDYTDLEILAETEEGDAYLFASKDKRIAFVTGHPEYDAQTLAQEFFRDVEAGLDPDVPYNYFPHNDPQNTPRASWRSHGNLLFTNWLNYYVYQITPYDLRHMNPTLD | % | 7.6
#11: feed-back resistant metA 11 gene product, amino acid sequence SEQ. ID. NO: 16 (protein, listed as Escherichia coli) MPIRVPDELPAVNFLREENVFVMSTSRASGQEIRPLKVLILNLMPKKIETENQFLRLLSNSPLQVDIQLLRIDSRESRNTPAEHLNNFYCNFEDIQDQNFDGLIVTGAPLGLVEFNDVAYWPQIKQVLEWSKDHVTSTLFVCWAVQAALNILYGIPKQTRTEKLSGVYEHHILHPHALLTRGFDDSFLAPHSRYADFPAALIRDYTDLEILAETEEGDAYLFASKDKRIAFVTGHPEYDAQTLAQEFFRDVEAGLDPDVPYNYFPHNDPQNTPRESWRSHGNLLFTNWLNYYVYQIAPYDLRHMYPTLD | % | 94
